# System: 786-0 renal
# Test summary: NCI tumour cell line growth inhibition, 48 h; in the data active = GI50 below about 0.43 µM; inactive = the rest
The reply should be one of these categories: active, inactive

Cc1nnn(C)c1-c1cnc2c3ccc(C(C)(C)O)cc3n([C@H](c3ccccc3)C3CCOCC3)c2c1: active
CCOC(=O)Cc1csc(NC(=O)C(OC(=O)c2ccc(Cl)cc2)c2ccccc2)n1 (stereo unspecified): inactive
COc1cc(CSc2nc3ccc(Cl)cc3c(=O)n2Cc2ccccc2)cc(OC)c1OC: inactive
CC(=O)O[C@@H]1c2c(c3c(=O)c4cccc(O)c4c(=O)c=3c2=[N+]=[N-])[C@H](OC(C)=O)[C@@H](OC(C)=O)[C@]1(C)O: active
COc1ccc(Sc2[nH]c(C=O)c3ccccc23)cc1: inactive
Cn1cnc([N+](=O)[O-])c1S(=O)(=O)Oc1ccc(Cl)cc1: inactive

INPUT: Hi team, can someone confirm the assay call for COc1cc(OC)c(C(=O)/C=C/c2ccc(C#N)cc2)c(OC)c1 ?
OUTPUT: inactive

INPUT: Assay result, entry Cc1cccc2c(=O)c3c(sc12)c(NCCCNCCO)nc1ccccc13 — outcome?
OUTPUT: inactive

INPUT: Field: outcome | Entry: CN1CCN(C)C1c1ccc(C2N(C)CCN2C)cc1
OUTPUT: inactive

* * *

# System: A498 renal
# Test summary: NCI tumour cell line growth inhibition, 48 h; in the data active = GI50 below about 0.43 µM; inactive = the rest
# valid calls are class 1 for active, class 0 for inactive; nothing else

Sample answers from the record:
COC(=O)CCc1n(Cc2ccc3ccccc3c2)c2ccccc2[n+]1Cc1ccc2ccccc2c1: class 0
O=C(COc1ccccc1)NNc1ccccc1: class 0
Oc1nc(N2CCOCC2)sc1/C=C1\C=Nc2ccccc21: class 0
COc1ccc(Nc2ncc(I)c(NCCCNC(=O)C3CCC3)n2)cc1: class 0
NC(=O)c1cn(C2CC(O)C(CO)O2)c2ncnc(N)c12 (centres undefined): class 0

INPUT: How was CC[C@]12CN3CCc4c([nH]c5ccccc45)[C@@](C(=O)OC)(c4cc5c(cc4OC)N(C)[C@H]4[C@@](O)(C(=O)OC)[C@H](OC(C)=O)[C@]6(CC)C=CCN7CC[C@]54[C@@H]76)CC(C3)[C@H]1O2 (some centres undefined) classified in this test?
OUTPUT: class 1

INPUT: Just curious, what result did CC[C@@]1(O)CC(OC2CC(N3CCOCC3)C(O)C(C)O2)c2c(O)c3c(c(O)c2[C@H]1O)C(=O)c1cccc(O)c1C3=O (some centres undefined) get here?
OUTPUT: class 1

INPUT: What classification did COc1cc(-n2cc(-c3ccc(Cl)cc3)n(-c3ccccc3)c2=O)cc(OC)c1OC end up with in this test?
OUTPUT: class 0

INPUT: I'd appreciate the recorded outcome for Cc1nnn(C)c1-c1cnc2c3ccc(C(C)(C)O)cc3n([C@H](c3ccccc3)C3CCOCC3)c2c1 from this test.
OUTPUT: class 1

* * *

# Tested on: LOX IMVI melanoma
# Test summary: NCI tumour cell line growth inhibition, 48 h
Measurement type: TGI

COc1cc(-n2cc(-c3ccc(Cl)cc3)n(-c3ccccc3)c2=O)cc(OC)c1OC: > 100 µM
C[C@]12Cc3conc3C(O)=C1CC[C@@H]1C2CC[C@@]2(C)C1CC[C@@H]2O (stereo not given in full): 24.9 µM
CCOC(=O)C1CC(=O)C=C2CCCCC21 (stereo not given): > 100 µM
COc1ccc(O)c(/C=N\Nc2ccccc2)c1: 13 µM
O=C1C(Cl)C(c2ccccc2Cl)N1n1cnc2ccccc2c1=O (stereo not given): > 100 µM
COc1cccc(S(=O)(=O)NC2=NCCN2C(=S)SN2CCn3c2nsc3=S)c1: 26.5 µM

Hey, quick one: what's TGI for each of these?
1. Cn1c(-c2ccccc2)cc(-c2ccc3c(c2)OCO3)c1-c1ccsc1
2. O=S(O)O.O=S(O)O.[Co].[NH2-].[NH2-].[NH2-].[NH2-]
3. CCCCCCCCCCCCCCCCc1c(C(=O)OC)nc(NC#N)[nH]c1=O
4. COC(=O)C(Cc1nc2ccc(Cl)cc2[nH]c1=O)C(=O)C(=O)Nc1cc(C)ccc1C (stereo not given)

OUTPUT:
1: > 100 µM; 2: > 100 µM; 3: > 25 µM; 4: > 100 µM
